- testDescription: Dissociation constant, pKa of the compound
- Type: physicochemical
// reported pKa for each item listed
I only need the number, thanks.

COc1cc2nc(N3CCN(C(=O)C4COc5ccccc5O4)CC3)nc(N)c2cc1OC (centres undefined) [DOXAZOSIN]: 6.9
N=C(N)Nc1ccc(Nc2ccc(NC(=N)N)cc2)cc1: 10.8
NC[C@H](O)c1ccc(O)c(O)c1 [NOREPINEPHRINE]: 8.58

**Query** Any idea what pKa was measured for c1cc(Nc2ccc(NC3=NCCN3)cc2)ccc1NC1=NCCN1 ?
**Result** 9.9

**Query** Okay, and O=C(c1ccc(NC2=NCCN2)cc1)c1ccc(NC2=NCCN2)cc1 ?
**Result** 8.6

**Query** What do we get for c1cc(NC2=NCCN2)ccc1Cc1ccc(NC2=NCCN2)cc1 ?
**Result** 9.8

**Query** Repeat for the following compound: CNC[C@H](O)c1ccc(O)c(O)c1 [EPINEPHRINE]
**Result** 8.59

**Query** Thanks! And N=C(N)Nc1ccc(C(=O)c2ccc(NC(=N)N)cc2)cc1 ?
**Result** 9.4

**Query** Same question for N=C(N)Nc1ccc(Cc2ccc(NC(=N)N)cc2)cc1 please.
**Result** 10.5
